Experiment: Selectivity index, ratio of CC50 for human HEL cells to EC50 for antiviral activity against thymidine kinase deficient Varicella zoster virus 07-1 infected in human HEL cells
Type: toxicity, cell-based
Conditions: read-out: Ratio CC50/EC50
MEASURE: selectivity ratio
Please state the value as a number alone, without comment.

Asked: What selectivity ratio value was documented for this molecule, C[C@H](NP(=O)(OC[C@@]1(F)O[C@@H](n2ccc(N)nc2=O)C(F)(F)[C@@H]1O)Oc1ccccc1)C(=O)OCc1ccccc1 (some centres undefined) ?
Given back: 29

Asked: Entry C[C@H](NP(=O)(OC[C@H]1O[C@@H](n2ccc(N)nc2=O)C(F)(F)[C@@H]1O)Oc1ccccc1)C(=O)OCc1ccccc1 (some centres undefined) [FOSGEMCITABINE PALABENAMIDE] please
Given back: 3

###

Hi there, I'd appreciate the recorded MCC at 72 h for every entry that follows.
Experiment: Cytotoxicity against human HEL cells assessed as alteration in cell morphology incubated for 3 days by microscopic analysis
Format: cell-based
Conditions: time 3 day

Asked: What does the data say about its MCC at 72 h? Entry: Nc1ccn(C[C@@H](CO)OCP(=O)(O)O)c(=O)n1
Given back: 300 µM

Asked: Consider next the compound CO[C@]1(CO)O[C@@H](n2ccc(N)nc2=O)C(F)(F)[C@@H]1O in the same way.
Given back: > 100 µM

Asked: Same for O=c1[nH]c(=O)n([C@H]2C[C@H](O)[C@@H](CO)O2)cc1/C=C/Br
Given back: > 300 µM

Asked: Let us now turn to Nc1nc2c(ncn2COCCO)c(=O)[nH]1
Given back: > 440 µM

Asked: Then what about the compound Nc1ccn([C@@H]2O[C@H](CO)[C@@H](O)C2(F)F)c(=O)n1 ?
Given back: 20 µM

Asked: Please answer likewise for O=c1ccn([C@@H]2O[C@](F)(CO)[C@@H](O)C2(F)F)c(=O)[nH]1
Given back: > 100 µM

Asked: Same read-out for CO[C@]1(COP(=O)(N[C@@H](C)C(=O)OCc2ccccc2)Oc2ccccc2)O[C@@H](n2ccc(N)nc2=O)C(F)(F)[C@@H]1O (some centres not stated) ?
Given back: > 100 µM

Asked: Now give it for C[C@H](NP(=O)(OC[C@H]1O[C@@H](n2ccc(N)nc2=O)C(F)(F)[C@@H]1O)Oc1ccccc1)C(=O)OCc1ccccc1 (some centres not stated) [FOSGEMCITABINE PALABENAMIDE] too.
Given back: > 100 µM

Asked: Subsequent entry: CO[C@]1(CO)O[C@@H](n2ccc(=O)[nH]c2=O)C(F)(F)[C@@H]1O
Given back: > 100 µM

Asked: Another compound to check: Nc1ccn([C@@H]2O[C@](F)(CO)[C@@H](O)C2(F)F)c(=O)n1
Given back: 20 µM

Asked: Next record, please: C[C@H](NP(=O)(OC[C@@]1(F)O[C@@H](n2ccc(N)nc2=O)C(F)(F)[C@@H]1O)Oc1ccccc1)C(=O)OCc1ccccc1 (some centres not stated)
Given back: > 100 µM

Asked: Please give the result for Nc1nc(O)c2ncn(COC(CO)CO)c2n1 too.
Given back: 350 µM

###

Tested on: Vero
Assay: Cytotoxicity against African green monkey Vero cells assessed as reduction in cell growth by coulter counter analysis
Type: cell-based
Details: chlorocebus sabaeus
MEASURE: CC50

Asked: Give its CC50 value. Item: CCN(CCO)CCCC(C)Nc1ccnc2cc(Cl)ccc12 (centres undefined) [HYDROXYCHLOROQUINE]
Given back: 36.9 µM

Asked: Lookup CO[C@]1(COP(=O)(N[C@@H](C)C(=O)OCc2ccccc2)Oc2ccccc2)O[C@@H](n2ccc(N)nc2=O)C(F)(F)[C@@H]1O (some centres undefined)
Given back: ≥ 93.6 µM

Asked: Can you handle CO[C@]1(CO)O[C@@H](n2ccc(N)nc2=O)C(F)(F)[C@@H]1O next?
Given back: > 100 µM

Asked: Another molecule to check: CCC(CC)COC(=O)[C@H](C)N[P@](=O)(OC[C@H]1O[C@@](C#N)(c2ccc3c(N)ncnn23)[C@H](O)[C@@H]1O)Oc1ccccc1
Given back: > 40 µM
